# testSystem: Aromatase (Homo sapiens, UniProt P11511)
# Sequence (P11511 whole entry): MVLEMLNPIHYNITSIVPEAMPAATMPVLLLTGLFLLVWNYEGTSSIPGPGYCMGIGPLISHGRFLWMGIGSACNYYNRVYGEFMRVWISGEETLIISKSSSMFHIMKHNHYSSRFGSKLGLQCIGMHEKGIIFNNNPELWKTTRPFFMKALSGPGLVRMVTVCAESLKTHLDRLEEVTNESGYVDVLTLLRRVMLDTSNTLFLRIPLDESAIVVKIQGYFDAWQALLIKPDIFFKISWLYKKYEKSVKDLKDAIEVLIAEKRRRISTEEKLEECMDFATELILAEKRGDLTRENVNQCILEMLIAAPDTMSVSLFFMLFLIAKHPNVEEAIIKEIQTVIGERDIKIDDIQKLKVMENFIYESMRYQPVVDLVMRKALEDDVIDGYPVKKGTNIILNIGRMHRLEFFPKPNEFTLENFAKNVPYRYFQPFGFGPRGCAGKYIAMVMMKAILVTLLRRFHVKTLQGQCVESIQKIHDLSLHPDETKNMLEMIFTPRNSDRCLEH
pIC50: −log10 of the molar value.
Quick reference for pIC50 among some compounds
experimentalReadout: pIC50

INSERT INTO results (smi, testsystem, value) VALUES
  ('CC(=O)OC1=C2CC[C@@H]3[C@H](CC[C@]4(C)C(=O)CC[C@@H]34)[C@@]2(C)CCC1', 'Aromatase (Homo sapiens, UniProt P11511)', 6.18),
  ('C[C@]12CC[C@H]3[C@@H](CC=C4CCCC[C@]43C)[C@@H]1CCC2=O', 'Aromatase (Homo sapiens, UniProt P11511)', 6.18),
  ('CCCCCC(=O)OC1=C2CC[C@@H]3[C@H](CC[C@]4(C)C(=O)CC[C@@H]34)[C@@]2(C)CCC1', 'Aromatase (Homo sapiens, UniProt P11511)', 5.74),
  ('C[C@]12CCC=C[C@@H]1CC[C@@H]1[C@@H]2CC[C@]2(C)C(=O)CC[C@@H]12', 'Aromatase (Homo sapiens, UniProt P11511)', 6.65),
  ('C[C@]12CCCC(=O)[C@@H]1CC[C@@H]1[C@@H]2CC[C@]2(C)C(=O)CC[C@@H]12', 'Aromatase (Homo sapiens, UniProt P11511)', 5.62);

# credit: ChEMBL document CHEMBL1629480
